The reported numbers originate from patent US20230094463A1.

Molecular target: T1, Human Galectin-3 protein (Acro Biosystems, GA3-H5129) (human, UniProt P17931 2-250)
T1 construct: Bought protein; also called Gal3-ECD-His; Gal3-His; not shown: linker-spaced 6-histidine tag
T1 sequence (P17931 2-250): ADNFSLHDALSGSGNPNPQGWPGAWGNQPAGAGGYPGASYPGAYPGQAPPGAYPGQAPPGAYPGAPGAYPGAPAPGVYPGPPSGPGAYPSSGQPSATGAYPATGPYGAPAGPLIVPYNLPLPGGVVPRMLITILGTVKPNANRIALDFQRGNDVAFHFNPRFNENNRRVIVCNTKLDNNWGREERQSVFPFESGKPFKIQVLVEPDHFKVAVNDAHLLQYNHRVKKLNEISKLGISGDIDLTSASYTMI
Experiment: SPR (Biacore T200), antibody captured, Galectin-3 as analyte
recordedEndpoint: Kd

Memo: 24D12.2H9 (antibody, V domains shown) VH: QVQLKQSGPGLVQPSQSLSITCTVSGFSLTSYGVHWVRQAPGKGLEWLGVIWSGGSTDYNAAFMSRLSISKDNSKSQVFFKMNSLQADDTAIYYCAKSPDGYDVAWFGYWGQGTLVTVSA VL: DIVMTQSHKFMSTSVGDRVSITCKASQDVRTAVAWYQQKPGQSPKLLIYWASTRHTGVPDRFTGSGSGTDFTLTLSNVQSEDLADYFCQQYSSYPWTFGGGTKLEIK , reported Kd: 4.13 nM

Memo: 13G4.2F8 (antibody, V domains shown) VH: QVQLQQPGAELVKPGASVKLSCKASGYTFTSYWMHWVKQRPGQGLEWIGMIHPNSGSTDYNEKFKNKATLNVDKSSSTAYIQLSSLTSEDSAVYYCTRWGIYYYARDYWGQGTTLTVSS VL: DIVMTQSQKFMSTSVGERVSITCKASQNVGTNVAWYQQKAGQSLELLIYGASNRHTGVPDRFTGSGSGTDFTLTITNVQSEDMTNYFCEQYSNFPLTFGAGTKLELK , reported Kd: 2.53 nM

Memo: 13A12.2E5 (antibody, V domains shown) VH: QIQLVQSGPELKKPGETVKISCKTSGYKFKTYVMSWVKQAPGKALKWMGWINTYSGVPTYADDFKGRFAFSLETSASTAYLEIINLKNEDTATYFCARDGNYGDPMDYWGQGTSVTVSS VL: DVVMTQTPLTLSVAIGQPASISCKSSQSLLYTNGKTYLNWLLQRPGQSPKRLIYLLSKLDSGVPDRFSASGSGTDFTLKISRVEAEDLGVYYCLQSTHFPLTFGAGTKLEMK , reported Kd: 8.2 nM

Others:
Memo: 15G7.2A7 (antibody, V domains shown) VH: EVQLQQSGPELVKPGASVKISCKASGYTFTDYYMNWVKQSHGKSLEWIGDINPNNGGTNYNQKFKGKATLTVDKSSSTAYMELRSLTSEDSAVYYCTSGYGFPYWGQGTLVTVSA VL: DIQMNQSPSSLSASLGDTISITCRASQNINIWLSWYQQKPGNIPQLLIYKASNLHTGVPSRFSGSGSGTDFTLTISSLQPEDIATYYCLQGQSYPLTFGAGTKLVMK , reported Kd: 11.3 nM

Memo: 19B5.2E6 (antibody, V domains shown) VH: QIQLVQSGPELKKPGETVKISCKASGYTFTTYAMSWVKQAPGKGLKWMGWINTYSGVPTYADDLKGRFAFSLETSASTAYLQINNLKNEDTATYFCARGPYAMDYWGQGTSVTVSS VL: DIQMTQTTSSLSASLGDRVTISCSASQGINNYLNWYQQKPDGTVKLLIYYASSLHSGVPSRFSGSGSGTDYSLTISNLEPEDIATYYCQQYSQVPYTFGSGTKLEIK , reported Kd: < 1 nM
